Tested target: T1, Human CCR8 (C-C chemokine receptor type 8) expressed on CHO-S cells (human, UniProt P51685 1-355)
T1 construct: also called huCCR8; human CCR8-expressing CHO-S cells
T1 sequence (P51685 whole entry): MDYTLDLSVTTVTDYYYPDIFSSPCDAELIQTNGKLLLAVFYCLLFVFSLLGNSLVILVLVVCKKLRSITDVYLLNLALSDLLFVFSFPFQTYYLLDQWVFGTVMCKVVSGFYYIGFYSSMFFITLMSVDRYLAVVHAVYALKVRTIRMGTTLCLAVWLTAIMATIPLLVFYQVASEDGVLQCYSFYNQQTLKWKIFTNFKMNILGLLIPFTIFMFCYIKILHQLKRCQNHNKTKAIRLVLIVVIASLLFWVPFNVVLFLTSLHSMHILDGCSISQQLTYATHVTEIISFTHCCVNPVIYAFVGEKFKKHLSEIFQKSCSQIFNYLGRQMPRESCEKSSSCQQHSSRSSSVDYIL
Assay info: flow cytometry, human CCR8-overexpressing against parental CHO-S cells
Readout: Flow (fold over parent) (fold)
Hi! Could you send only the number? It should be in fold, unit omitted.

Below, 2 binders whose answers are already recorded.
7B16.005 (CDR H3 alanine scan variant of 7-B16) (antibody, human IgG1, kappa, V domains shown) VH: EVQLVESGGGLVQPKGSLKLSCAASGFTFNTYAMNWVRQAPGKGLEWVARIRSKSNNYATYYADSVKDRFTISRDDSQSMLYLQMNNLKTEDTAMYYCVRGALRYRFFDVWGAGTTVTVSS VL: DIVMTQAEPSVPVTPGESISISCRSSKSLLHSNGNTYLYWFLQRPGQSPQLLIYRMSNLASGVPDRFSGSGSGTAFTLRISRVEAEDVGVYYCMQHLEYPFTFGGGTKLEIKR; 9
7B16.013 (CDR H3 alanine scan variant of 7-B16) (antibody, human IgG1, kappa, V domains shown) VH: EVQLVESGGGLVQPKGSLKLSCAASGFTFNTYAMNWVRQAPGKGLEWVARIRSKSNNYATYYADSVKDRFTISRDDSQSMLYLQMNNLKTEDTAMYYCVRGLLRYRFFDAWGAGTTVTVSS VL: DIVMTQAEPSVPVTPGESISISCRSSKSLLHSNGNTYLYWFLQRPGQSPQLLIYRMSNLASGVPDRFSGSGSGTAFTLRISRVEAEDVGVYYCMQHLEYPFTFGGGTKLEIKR; 9

Please fill in: Flow (fold over parent) reported for 7B16.006 (CDR H3 alanine scan variant of 7-B16) (antibody, human IgG1, kappa, V domains shown) VH: EVQLVESGGGLVQPKGSLKLSCAASGFTFNTYAMNWVRQAPGKGLEWVARIRSKSNNYATYYADSVKDRFTISRDDSQSMLYLQMNNLKTEDTAMYYCVRGLARYRFFDVWGAGTTVTVSS VL: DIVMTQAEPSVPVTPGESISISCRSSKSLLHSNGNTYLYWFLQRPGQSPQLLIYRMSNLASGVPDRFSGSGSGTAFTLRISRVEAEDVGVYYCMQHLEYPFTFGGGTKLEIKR = 8
